target: PI3K (Homo sapiens); construct: PI3 Kinase γ IC50; other: PI3 Kinase γ; other: PI3 Kinase γ isoform, fluorescence polarization; test: Fluorescence polarization assay for PI3K; type: biochemical; details: PI3 Kinase γ isoform, fluorescence polarization; read-out: PI3 Kinase γ IC50
assay-metric: IC50 (µM)
Provide the reading as a plain figure in µM.

Please review the following examples before continuing.
>>> data_value("COC1CCC(n2ncc3c(N4CC5CCC(C4)O5)nc(-c4ccc(NC(=O)Nc5ccc(OCCN(C)C)cc5)cc4)nc32)CC1 (stereo not shown)")
2.43
>>> data_value("CNC(=O)Nc1ccc(-c2nc(N3C4CCC3COC4)c3cnn(C4CCN(C(=O)OC)CC4)c3n2)cc1")
6.74
>>> data_value("CCn1nc(N2CCCC2)c2c(N3CC4CCC(C3)O4)nc(-c3ccc(NC(=O)NC)cc3)nc21")
7.13
>>> data_value("CS(=O)(=O)N1CCN(Cc2cc3nc(-c4ccc(NC(=O)NC5CC5)cc4)nc(N4CC5CCC(C4)O5)c3s2)CC1")
1.53

Turning now to a further record.
**Q:** Report IC50 for COC(=O)N1CCC(n2ncc3c(N4C5CCC4COC5)nc(-c4ccc(NC(=O)Nc5ccc(N6CCNCC6)cc5)cc4)nc32)CC1 tested on PI3K (Homo sapiens).
**A:** 0.947

----------
Listed below: pIC50 values for each entry.
target: PI3K (Homo sapiens, UniProt P42336); construct: PI3 Kinase α IC50; other: PI3 Kinase α; other: PI3 Kinase α isoform, fluorescence polarization; assay: Fluorescence polarization assay for PI3K; assay type: biochemical; settings: PI3 Kinase α isoform, fluorescence polarization; read-out: PI3 Kinase α IC50
Sequence (P42336 whole entry, canonical isoform): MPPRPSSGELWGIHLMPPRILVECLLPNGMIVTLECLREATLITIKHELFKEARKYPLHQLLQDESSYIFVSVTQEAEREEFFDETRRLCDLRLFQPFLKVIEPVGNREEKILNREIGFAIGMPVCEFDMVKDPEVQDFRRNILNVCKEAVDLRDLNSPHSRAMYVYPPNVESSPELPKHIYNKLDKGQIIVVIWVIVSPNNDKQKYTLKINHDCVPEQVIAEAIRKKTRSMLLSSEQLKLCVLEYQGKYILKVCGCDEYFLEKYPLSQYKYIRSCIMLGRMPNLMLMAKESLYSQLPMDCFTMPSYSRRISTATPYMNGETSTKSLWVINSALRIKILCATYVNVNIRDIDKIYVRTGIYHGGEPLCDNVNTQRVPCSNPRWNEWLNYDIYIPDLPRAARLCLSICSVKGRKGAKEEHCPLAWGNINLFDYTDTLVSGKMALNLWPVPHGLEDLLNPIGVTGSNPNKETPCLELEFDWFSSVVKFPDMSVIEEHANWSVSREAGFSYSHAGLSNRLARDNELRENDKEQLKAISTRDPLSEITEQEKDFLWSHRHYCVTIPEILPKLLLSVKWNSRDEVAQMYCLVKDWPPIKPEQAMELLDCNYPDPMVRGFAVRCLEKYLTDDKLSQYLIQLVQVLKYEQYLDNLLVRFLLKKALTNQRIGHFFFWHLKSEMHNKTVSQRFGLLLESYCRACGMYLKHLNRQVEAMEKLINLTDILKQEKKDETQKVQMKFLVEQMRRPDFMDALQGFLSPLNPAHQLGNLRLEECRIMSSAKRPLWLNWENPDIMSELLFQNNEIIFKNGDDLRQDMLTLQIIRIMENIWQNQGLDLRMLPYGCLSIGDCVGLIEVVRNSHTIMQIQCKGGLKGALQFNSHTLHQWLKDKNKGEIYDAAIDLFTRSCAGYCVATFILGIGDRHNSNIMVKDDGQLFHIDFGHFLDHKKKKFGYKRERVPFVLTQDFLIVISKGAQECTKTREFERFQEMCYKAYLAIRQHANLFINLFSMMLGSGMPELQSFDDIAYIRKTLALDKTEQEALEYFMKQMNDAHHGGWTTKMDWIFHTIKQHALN
Conceptually, pIC50 converts a concentration in mol/L into minus its log10.

>>> data_value("CCn1nc(-c2cccnc2)c2c(N3CC4CCC(C3)O4)nc(-c3ccc(NC(=O)NC)cc3)nc21")
6.22

**Q:** Find the recorded pIC50 belonging to CN1CCN(c2ccc(NC(=O)Nc3ccc(-c4nc(N5CC6CCC(C5)O6)c5cnn([C@H]6CC[C@@H](O)CC6)c5n4)cc3)cc2)CC1 (relative stereo) and report it.
**A:** 6.97

**Q:** Need pIC50, item CNC(=O)Nc1ccc(-c2nc(N3CC4CCC(C3)O4)c3cnn(C4CCC(N5CCCC5)CC4)c3n2)cc1 (stereo not drawn)
**A:** 6.22

**Q:** Look up pIC50 for this molecule: Oc1cccc(-c2nc(N3C4CCC3COC4)c3cnn(-c4ccccc4)c3n2)c1
**A:** 6.39

**Q:** Item under review: CNC(=O)Nc1ccc(-c2nc(N3CC4CCC(C3)O4)c3sccc3n2)cc1 . Reported pIC50?
**A:** 6.37

**Q:** Fill blank: measured pIC50 of the molecule COC1CCC(n2ncc3c(N4CC5CCC(C4)O5)nc(-c4ccc(NC(=O)NC5CC5)cc4)nc32)CC1 (stereo not drawn) is ____.
**A:** 5.41

**Q:** // returns reported pIC50 for input COCC(COC)n1ncc2c(N3CC4CCC(C3)O4)nc(-c3ccc(NC(=O)Nc4ccc(N5CCN(C)CC5)cc4)cc3)nc21
**A:** 6.12

**Q:** What pIC50 value was documented for this molecule, CNC(=O)Nc1ccc(-c2nc(N3CC4CCC(C3)O4)c3cnn(C4CCC(NCCO)CC4)c3n2)cc1 (stereo not drawn) ?
**A:** 6.36

**Q:** Value lookup for pIC50; key = CCn1nc(C=O)c2c(N3CC4CCC(C3)O4)nc(-c3ccc(NC(=O)NC)cc3)nc21
**A:** 5.97
